Known cytotoxicity at 10 µM of a selection of compounds
- Protocol Notes: Toxicity liver stage against HepG2, at 10uM
- Type: cell-based
- Design: test concentration 10 uM, cell line HepG2-A16-CD81EGFP
- Condition Summary: human, HepG2-A16-CD81EGFP cells; read-out: INHIBITION
Form entry: value (%) — number only.

Past entries and their recorded results:
O=C(COCC1CCCO1)N(Cc1cccnc1)c1ccc(F)cc1 (stereo unspecified)	-2.04
Cn1cc(C(=O)OCC(N)=O)c(-c2ccc(F)cc2F)n1	-7.85
Cc1nc(CN2CCC3(CC2)NC(=O)CC3c2cccnc2)cs1 (stereo unspecified)	-2.27
COC(=O)CN(C(=O)c1ccc(Cl)o1)c1cccc(F)c1	6.11
O=C(c1cccc(-n2cccn2)c1)N1CCCOC(Cn2cccn2)C1 (stereo unspecified)	-6.58

Please find the next compound below.
q: Name the recorded cytotoxicity at 10 µM for CNc1nc(C)cc(N2CCC(C(=O)O)(n3ccc(C(C)C)n3)CC2)n1 .
a: 1.52

====

- Protocol Notes: Toxicity liver stage against HepG2, at 10uM
- Type: cell-based
- Parameters: test concentration 10 uM, cell line HepG2-A16-CD81EGFP
- Condition Summary: human, HepG2-A16-CD81EGFP cells; read-out: INHIBITION
Observed Property: cytotoxicity at 10 µM
Express your answer as a number followed by its unit.

Past entries and their recorded results:
Cc1oc(-c2cccs2)nc1C(=O)N(C)C1(C#N)CCC1	5.09%
CCOCC1CN(Cc2cnn(C)c2)Cc2ncn(CC3CC3)c21 (stereo not drawn)	2.21%
COc1cc(N2CCC3(CC(=O)N(Cc4csc(C)n4)C3)C2)ncn1 (stereo not drawn)	-104%

q: Name the recorded cytotoxicity at 10 µM for CC(C)(CNC(=O)CCCOc1cccc(F)c1)C(N)=O .
a: -6.54%

q: Thanks! And N#CC(Sc1nnnn1C1CCOCC1)C1CCCCC1 (stereo not drawn) ?
a: 21.7%

q: Thanks! And NC(=O)CCn1ccc(NCc2cc(F)ccc2Br)n1 ?
a: -1.91%

q: Thanks! And COc1cccc(CC(=O)N2CCc3ncnc(NCCO)c3CC2)c1 ?
a: -4.12%

q: Thanks! And Cc1cc(C(=O)NC2CCCCNC2=O)c(=O)[nH]c1C (stereo not drawn) ?
a: -3.35%

q: Thanks! And Cc1ccc(NC2CCN(C(=O)Cc3ccc(C#N)cc3)CC2)nn1 ?
a: -6.83%

q: Thanks! And Fc1ccc(CNCc2nnc3n2CC(C(F)(F)F)CC3)cc1 (stereo not drawn) ?
a: 6.71%

q: Thanks! And CCN1CCN(c2ccc(F)cc2C(C)NCc2ccnn2C)CC1 (stereo not drawn) ?
a: -8.33%

q: Thanks! And Cc1cc(C(C)NC(=O)c2ccc(O)nc2)c(C)o1 (stereo not drawn) ?
a: -1.85%

q: Thanks! And COCC1COCCC12CCN(C(=O)CCOc1ccccc1)CC2 (stereo not drawn) ?
a: -18.7%

q: Thanks! And C=C(C)COc1ccccc1CN1CCC(NC(C)=O)CC1 ?
a: 11.9%

q: Thanks! And O=C(c1ccoc1)N1CCOCC2(CCN(Cc3cccs3)C2)C1 (stereo not drawn) ?
a: -2.98%

q: Thanks! And CC(C)C(=O)NCCC(=O)N1CCN(c2ccccn2)CC1 ?
a: -6.13%

q: Thanks! And Cc1cccc(N2Cc3c(NC4CCCC4)ncnc3N(C)CC2=O)c1 ?
a: 10.3%

q: Thanks! And CCOc1ccccc1Oc1ccc(CN)cn1 ?
a: 6.03%

q: Thanks! And COc1cccc(Cc2nnc(SC3CCOC3=O)o2)c1 (stereo not drawn) ?
a: 12.9%

====

- Protocol Notes: Toxicity liver stage against HepG2, at 10uM
- Type: cell-based
- Parameters: test concentration 10 uM, cell line HepG2-A16-CD81EGFP
- Condition Summary: human, HepG2-A16-CD81EGFP cells; read-out: INHIBITION
Observed Property: cytotoxicity at 10 µM (%)
Form entry: value (%) — number only.

Past entries and their recorded results:
CC(=O)N1CCN(c2nc(C(F)(F)F)nc3sc(C)c(C)c23)CC1	-4.33
O=C(c1cnccn1)N1CCc2onc(Cn3cccn3)c2C1	-0.25
CCOc1cncc(N2CCCC2c2nnc3n2CCCCC3)n1 (configuration not stated)	-5.93

q: Name the recorded cytotoxicity at 10 µM for O=C(c1ccc(Cl)cc1)N1CCn2c(nn(-c3ccncc3)c2=O)C1 .
a: 27.5

q: Thanks! And CN1C(=O)C2(CC(=O)Nc3c2cnn3C(C)(C)C)c2ccccc21 (configuration not stated) ?
a: -4.5

====

Known cytotoxicity at 10 µM of a selection of compounds
- Protocol Notes: Toxicity liver stage against HepG2, at 10uM
- Format: cell-based
- Design: test concentration 10 uM, cell line HepG2-A16-CD81EGFP
- Condition Summary: human, HepG2-A16-CD81EGFP cells; read-out: INHIBITION
Express your answer as a number followed by its unit.

Past entries and their recorded results:
O=C(CCS(=O)(=O)C1CCCC1)N1CCC(O)(C(F)(F)F)C1 (stereo unspecified)	18.9%
COC(=O)CN(CC1CCOC1)C1CC1 (stereo unspecified)	-24.3%
Cc1ccc(CN2CCc3c(nnn3C)C2COCc2ccccc2)s1 (stereo unspecified)	-110%
CN(C(=O)Nc1ccncc1)C1CCN(c2ccc(Cl)cc2)CC1	1.44%

q: Name the recorded cytotoxicity at 10 µM for O=C(c1cccc(S(=O)(=O)NCCCn2cccn2)c1)N1CCOCC1 .
a: 5.78%

q: Thanks! And CC(C)N1[C@@H](C(=O)NCC2CC2)C[C@@H]2CN(Cc3ccco3)C[C@@H]21 ?
a: 3.41%

====

- Protocol Notes: Toxicity liver stage against HepG2, at 10uM
- Format: cell-based
- Design: test concentration 10 uM, cell line HepG2-A16-CD81EGFP
- Condition Summary: human, HepG2-A16-CD81EGFP cells; read-out: INHIBITION
Observed Property: cytotoxicity at 10 µM (%)
Form entry: value (%) — number only.

Past entries and their recorded results:
Cc1ncc(C(=O)N2CC(C(=O)N3CCOCC3)C2)c(C)n1	3.54
Cc1noc(C)c1C(=O)N1CCCC(c2cc(C(F)(F)F)[nH]n2)C1 (stereo unspecified)	-0.855
Cc1noc(C2CCCN(C(=O)c3cc(Cl)cn3C)C2)n1 (stereo unspecified)	1.33
CS(=O)(=O)NCCCN1CCCC1c1ccccc1 (stereo unspecified)	-13.4
CN(CCC1CCOCC1)[C@@H]1c2ccccc2C2(CCNCC2)[C@H]1O	-3.23

Please find the next molecule below.
q: Name the recorded cytotoxicity at 10 µM for CC1=CCN(S(=O)(=O)c2cccc(C(=O)N3CCCN(C)CC3)c2)CC1 .
a: -2.36

====

- Protocol Notes: Toxicity liver stage against HepG2, at 10uM
- Assay type: cell-based
- Parameters: test concentration 10 uM, cell line HepG2-A16-CD81EGFP
- Condition Summary: human, HepG2-A16-CD81EGFP cells; read-out: INHIBITION
Known cytotoxicity at 10 µM of a selection of compounds
Express your answer as a number followed by its unit.

Past entries and their recorded results:
Cc1cc(C)nc(NC(=O)NCCCSc2nncn2C)n1	1.74%
CC(C)n1cc(CN2CCCN(C(=O)c3ccnn3C)CC2)cn1	2.79%

q: Name the recorded cytotoxicity at 10 µM for CC(O)CN1CCN(C(=O)c2cnn(-c3ccccc3Cl)c2)CC1 (configuration not stated) .
a: -8.9%

q: Thanks! And CCC(C)N1CCc2c(C(=O)N(C)Cc3ccccn3)nn(C)c2C1 (configuration not stated) ?
a: -2.78%

q: Thanks! And CN(C)C(=O)CN1C[C@H]2CC[C@@H](C1)N(Cc1c(Cl)cncc1Cl)C2 ?
a: 6.02%

q: Thanks! And CCN1CCCC(c2c(-c3ccccc3)ncn2Cc2cccnc2)C1 (configuration not stated) ?
a: -6.75%

q: Thanks! And CC(=O)N1C[C@@H]2CN(Cc3cccnc3)CCO[C@@H]2C1 ?
a: -0.271%

q: Thanks! And O=C(c1ccncc1)N(CCO)Cc1cc(Br)ccc1F ?
a: 10.2%

q: Thanks! And COc1ccc(Cl)cc1CS(=O)(=O)Cc1noc(C)n1 ?
a: 2.32%

====

Known cytotoxicity at 10 µM of a selection of compounds
- Protocol Notes: Toxicity liver stage against HepG2, at 10uM
- Format: cell-based
- Design: test concentration 10 uM, cell line HepG2-A16-CD81EGFP
- Condition Summary: human, HepG2-A16-CD81EGFP cells; read-out: INHIBITION
Form entry: value (%) — number only.

Past entries and their recorded results:
CC1(C)Cc2ccccc2-c2nc(NCCCO)[nH]c(=O)c21	3.57
COCc1cccc(NCc2cccnc2)c1	4.16
CCCNC(=O)NC(=O)CNc1c(F)cccc1N1CCCC1	0.266
Cc1c(C(=O)NC2(C#N)CCSC2)cnn1-c1ccccc1Cl (configuration not stated)	-2.06
CN1N=C(C(=O)Nc2cc(F)ccc2OCC2CCCO2)CCC1=O (configuration not stated)	-8
CCC1CN(C(=O)c2ccc(O)c(C)c2)CCN1C(C)C (configuration not stated)	1.68
Cc1ccc(C(=O)N2CCN(C(=O)Cc3ccccn3)CC2)c(C)c1	-4.74
CC(C)c1nn(C)c(N(C)C)c1CNCCC(=O)NC1CCCCC1	-2.89
Cc1ccc(CN(Cc2ccccn2)C2CC(C)(C)NC(C)(C)C2)s1	2.7
CCc1nc(CN2CCN(c3ncnc4cc(F)ccc34)CC2)no1	41.5

q: Name the recorded cytotoxicity at 10 µM for Cc1nn(CC(=O)N2CCN(c3cnccn3)CC2)c(C)c1Cl .
a: 7.76

q: Thanks! And CCNc1nc(C)c(C(=O)N2CCN(c3ncccc3C)CC2)s1 ?
a: 3.77
